Just for reference, the NIST ThermoML archive (doi:10.1016/j.jct.2013.01.012) is where these values come from.

Assay: mn = molality of the nth substance listed, in mol/kg
Conditions: 298.15 K; 101 kPa; Liquid; Sing-around technique in a fixed-path interferometer; m1 = 0.7
± gives the expanded uncertainty stated by the source.
Catalogue of speed of sound values
Reply with the number, then its unit.

// solved cases for speed of sound follow
O=P([O-])(O)O.[Li+] [lithium dihydrogen phosphate] + O	1569.2 ± 5 m/s
O=P([O-])([O-])O.[K+].[K+] [dipotassium hydrogen phosphate] + O	1607.3 ± 1 m/s
O=P([O-])([O-])[O-].[K+].[K+].[K+] [tripotassium phosphate] + O	1658.8 ± 1.1 m/s
O=P(O)(O)O [phosphoric acid] + O	1502 ± 0.97 m/s
O=P([O-])([O-])[O-].[Na+].[Na+].[Na+] [trisodium phosphate] + O	1658.1 ± 1.1 m/s
O=P([O-])([O-])O.[Na+].[Na+] [disodium hydrogen phosphate] + O	1621.3 ± 1.1 m/s

Turning now to a further molecule:
Exercise: Given the molecule O=P([O-])(O)O.[Na+] [sodium dihydrogen phosphate] + O , what is its reported speed of sound?
Solution: 1567.7 ± 1 m/s

---

Catalogue of speed of sound values
Test: mn = molality of the nth substance listed, in mol/kg
Settings: 303.15 K; 101 kPa; Liquid; Sing-around technique in a fixed-path interferometer; m1 = 0.1
State just the number; it will be interpreted in m/s.

// solved cases for speed of sound follow
O=P([O-])([O-])[O-].[Na+].[Na+].[Na+] [trisodium phosphate] + O	1531.5
O=P([O-])(O)O.[Na+] [sodium dihydrogen phosphate] + O	1519.2
O=P(O)(O)O [phosphoric acid] + O	1509.2
O=P([O-])(O)O.[K+] [monopotassium phosphate] + O	1518.4
O=P([O-])([O-])O.[Na+].[Na+] [disodium hydrogen phosphate] + O	1526.5
O=P([O-])(O)O.[Li+] [lithium dihydrogen phosphate] + O	1518.5
O=P([O-])([O-])[O-].[K+].[K+].[K+] [tripotassium phosphate] + O	1529.8

Turning now to a further compound:
Exercise: Given the compound O=P([O-])([O-])O.[K+].[K+] [dipotassium hydrogen phosphate] + O , what is its reported speed of sound?
Solution: 1525.1

---

Test: mn = molality of the nth substance listed, in mol/kg
Details: 298.15 K; 101 kPa; Liquid; Vibrating tube method; m1 = 0.7
Experimental Readout: mass density (kg/m3)
State just the number; it will be interpreted in kg/m3.

O=P([O-])([O-])[O-].[Na+].[Na+].[Na+] [trisodium phosphate] + O	1130.08

Exercise: Given the molecule O=P([O-])(O)O.[K+] [monopotassium phosphate] + O , what is its reported mass density?
Solution: 1066.58

Exercise: Given the molecule O=P([O-])([O-])[O-].[K+].[K+].[K+] [tripotassium phosphate] + O , what is its reported mass density?
Solution: 1145.91

---

Test: mn = molality of the nth substance listed, in mol/kg
Conditions: 298.15 K; 101 kPa; Liquid; Sing-around technique in a fixed-path interferometer; m1 = 0.5
Catalogue of speed of sound values
State just the number; it will be interpreted in m/s.

// solved cases for speed of sound follow
O=P([O-])([O-])O.[Na+].[Na+] [disodium hydrogen phosphate] + O	1583.5
O=P([O-])([O-])O.[K+].[K+] [dipotassium hydrogen phosphate] + O	1574.6
O=P([O-])(O)O.[Na+] [sodium dihydrogen phosphate] + O	1547.3
O=P([O-])([O-])[O-].[K+].[K+].[K+] [tripotassium phosphate] + O	1603

Exercise: Given the molecule O=P(O)(O)O [phosphoric acid] + O , what is its reported speed of sound?
Solution: 1500

Exercise: Given the molecule O=P([O-])(O)O.[Li+] [lithium dihydrogen phosphate] + O , what is its reported speed of sound?
Solution: 1544.1

Exercise: Given the molecule O=P([O-])(O)O.[K+] [monopotassium phosphate] + O , what is its reported speed of sound?
Solution: 1542.1

Exercise: Given the molecule O=P([O-])([O-])[O-].[Na+].[Na+].[Na+] [trisodium phosphate] + O , what is its reported speed of sound?
Solution: 1608.9
